target.desc: UniProt Q8I274
test.details: IC50 for competition of protein binding to Kinobeads;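 further: native unpurified kinases from lysate captured on beads bearing immobilized kinase inhibitors, with bead-bound kinases quantified by mass spectrometry across compound doses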
run.parameters: assay detail: Kinobeads competition in P. falciparum blood-stage lysate
measurement.label: IC50

Please give the measured IC50 for this molecule: O=c1[nH]c2ccc(Cl)cc2c(NC2CN3CCC2CC3)c1-c1nc2ccccc2[nH]1 (stereo unspecified)
> 20 µM

---

target.desc: UniProt Q8IAY9
test.details: IC50 for competition of protein binding to Kinobeads
run.parameters: assay detail: Kinobeads competition in P. falciparum blood-stage lysate
pIC50: −log10 of the molar value.
measurement.label: pIC50

Please give the measured pIC50 for this compound: O=c1[nH]c2ccc(Cl)cc2c(NC2CN3CCC2CC3)c1-c1nc2ccccc2[nH]1 (stereo unspecified) [CHIR-124]
< 4.70
